- Test system: CEM cells HIV-1 protection, formazan growth assay
- procedure_details: NCI AIDS Antiviral Assay
- condition_summary: measured here: growth of uninfected CEM cells
quantity_kind: pIC50
A value of pIC50 is the negative decimal logarithm of a concentration given in moles per litre.

The value of pIC50 measured for the molecule O=C(c1ccccc1[N+](=O)[O-])C(Br)C(Br)c1ccc(Cl)c(Cl)c1 (centres undefined) turned out to be 6.00

According to the records, this molecule "O=c1cc(-c2cccs2)ss1" displays pIC50 of 3.96

Record "CCSCCCCCCCCCCCC(=O)O" . Reported pIC50: 4.49

The molecule identified as O=C(NCCN1CCOCC1)C1(O)N=C(c2ccccc2)c2ccsc2-n2cccc21 (centres undefined) registered its pIC50 at 3.91

The recorded pIC50 for "CCOC(=O)[C@H](Cc1ccccc1)NC(=O)c1nc[nH]c1[N+](=O)[O-]" is 3.43

Others:
pIC50 recorded for this molecule, "O=S(=O)(O)SCNCNCCSCc1ccccc1" , is 4.34

Quick note, pIC50 for "Cc1nnc2c3nccnc3c(Cl)nn12" landed at 5.63

Short answer for "NC(N)=N/N=C/c1c(Cl)nc2n1CCS2" : pIC50 was 3.99

pIC50 recorded for this molecule, CCCCCC(/C=C/C1CCC(=O)C1)OCOCCOC (centres undefined) , is 4.74

// pIC50 lookup, molecule = CCOC(=O)C(NC(=O)NCc1ccc(F)cc1)C(F)(F)F (centres undefined) , result: 4.09

The molecule identified as "COc1cc(C(C2=C(O)c3ccccc3C(=O)C2=O)C2=C(O)c3ccccc3C(=O)C2=O)cc(OC)c1OC" registered its pIC50 at 4.14

---

- Tested on: CEM cells HIV-1 protection, formazan growth assay
- procedure_details: NCI AIDS Antiviral Assay
- condition_summary: measured here: growth of uninfected CEM cells
quantity_kind: IC50 (µM)
Answer in µM, number only, no unit symbol.

As a guide, the following entries are already answered.
For "Cc1cc(S(=O)(=O)Nc2n[nH]c(Nc3ccccc3)n2)c(SSc2cc(Cl)c(C)cc2S(=O)(=O)Nc2n[nH]c(Nc3ccccc3)n2)cc1Cl" the compound record lists IC50 as 95.5

Notebook: CC1OC(Oc2ccc3c(=O)c(-c4ccc(O)cc4)coc3c2)C(O)C(O)C1O (configuration not stated) , IC50 read as 93.3

For reference, reported IC50 for "O=C(Nc1ccccc1)N(CCCCN(Cc1ccccc1)C(=O)Nc1ccccc1)Cc1ccccc1" stands at 112

With those in mind, consider the next compound.
CC(O)(c1ccccc1)c1nccc2ccccc12 (configuration not stated) has a reported IC50 of 77.6

---

- System: CEM cells HIV-1 protection, formazan growth assay
- procedure_details: NCI AIDS Antiviral Assay
- condition_summary: measured here: growth of uninfected CEM cells
- Procedure: The ability of compounds to protect human CEM cells from HIV-1 infection is measured as a screen for new compounds capable of inhibiting the HIV virus. Five concentrations of drug were tested on uninfected and infected cells and cell growth was measured using a soluble formazan assay. […] Compounds that provided at least 50% protection were retested. Compounds that provided at least 50% protection on retest were listed as moderately active. […]
pIC50: −log10 of the molar value.
# pIC50 values compiled below

For record "O=C1OC(=O)c2c1c(-c1ccccc1)nc1ccccc21" the listed pIC50 is < 3.97

We next turn to a different compound, shown below.
Lab note: measured pIC50 of NC(N)=NCCCC(NC(=O)OCCCCCn1ccc(N)nc1=O)C(=O)O (stereo not drawn) was < 3.70
